- Test system: SARS-CoV-2
- TEST CONDITIONS: 10 µM
Response field class: enum, chosen by comparing % Inh. (% Inhibition of SARS-CoV-2) against small value = under 70%, mid value = from 70% up to 90%, large value = 90% and over

MOLECULE	CLASS LABEL
Nc1cccc(CNC(=O)c2ccc(Oc3ccc(OCc4cccc(F)c4)cc3)nc2)c1 [YM-244769]	small value
NC(=O)N/N=C/c1ccc(Oc2ccc(F)cc2)cc1 [co-102862]	small value
O=S(=O)(NCCCCCCc1ccccc1)c1cccc2c(Cl)cccc12 [SC-9]	mid value

Challenge: Category of Nc1nc(OCC2CCCCC2)c2[nH]cnc2n1 [NU-2058] , please.
Response given: small value

Challenge: Which of the defined bands does the recorded % Inh. (% Inhibition of SARS-CoV-2) of FC(F)(F)c1ccc(CNc2ccc(Cc3c[nH]c4ncccc34)cn2)cc1 [PLX-647] sit within?
Response given: large value

Challenge: Class for O=C1/C(=C/c2ccccc2)C[C@@]2(O)[C@H]3Cc4ccc(O)c5c4[C@@]2(CCN3CC2CC2)[C@H]1O5 [BNTX] ?
Response given: mid value
